molecular target: human S1P1 receptor (Homo sapiens); construct: membranes; experiment: S1P1 GTPγS assay; settings: [35S]-GTPγS SPA, membranes of rat hepatoma cells expressing human S1P1, agonist
Sequence (P21453 whole entry): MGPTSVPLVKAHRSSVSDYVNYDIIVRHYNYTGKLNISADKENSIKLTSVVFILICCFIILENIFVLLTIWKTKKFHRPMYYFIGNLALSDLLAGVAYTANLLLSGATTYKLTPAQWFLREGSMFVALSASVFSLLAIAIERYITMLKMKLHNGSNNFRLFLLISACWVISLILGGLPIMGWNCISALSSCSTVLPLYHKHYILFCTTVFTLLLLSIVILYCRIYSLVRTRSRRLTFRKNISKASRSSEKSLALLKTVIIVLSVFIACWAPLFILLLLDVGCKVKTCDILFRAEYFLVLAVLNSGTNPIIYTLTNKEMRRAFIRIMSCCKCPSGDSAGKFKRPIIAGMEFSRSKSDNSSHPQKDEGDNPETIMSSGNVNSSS
Counter-ions that a name gives are not always drawn.
quantity-name: EC50

{"compound": "Cc1c(-c2noc(-c3ccc(OC(C)C)c(Cl)c3)n2)ccc2c1CCN(CCC(=O)O)C2", "EC50": "< 10 nM"}
{"compound": "Cc1c(-c2noc(-c3ccc(OC(C)C)c(C#N)c3)n2)ccc2c1CCN(CCC(=O)O)C2 [Example 13, sodium salt]", "EC50": "< 100 nM"}
{"compound": "Cc1c(-c2noc(-c3ccc(OC(C)C)c(C#N)c3)n2)ccc2c1CCN(CC(=O)O)C2", "EC50": "< 100 nM"}
{"compound": "CC(C)Oc1ccc(-c2nc(-c3cccc4c3CCNC4)no2)cc1C#N [Example 2, hydrochloride]", "EC50": "< 10 nM"}
{"compound": "CC(C)Oc1ccc(-c2nc(-c3cccc4c3CCN(CCC(=O)O)C4)no2)cc1C#N [Example 5, hydrochloride]", "EC50": "< 100 nM"}

Report EC50 for CC(C)Oc1ccc(-c2nc(-c3cccc4c3CCN(CCCC(=O)O)C4)no2)cc1C#N [Example 6, hydrochloride] please.
< 10 nM

# iterate: CC(C)Oc1ccc(-c2nc(-c3cccc4c3CCNC4)no2)cc1Cl [Example 1, hydrochloride]
< 100 nM

# iterate: CC(C)Oc1ccc(-c2nc(-c3cccc4c3CCN(CC(=O)O)C4)no2)cc1C#N [Example 4, hydrochloride]
< 10 nM

# iterate: CC(C)Oc1ccc(-c2nc(-c3cccc4c3CCN(C)C4)no2)cc1C#N
< 100 nM

# iterate: Cc1c(-c2noc(-c3ccc(OC(C)C)c(Cl)c3)n2)ccc2c1CCN(CC(=O)O)C2
< 100 nM

# iterate: CC(C)Oc1ccc(-c2nc(-c3cccc4c3CCNC4)no2)cc1C#N [Example 3]
< 100 nM

# iterate: Cc1c(-c2noc(-c3ccc(OC(C)C)c(C#N)c3)n2)ccc2c1CCNC2 [Example 11, trifluoroacetic acid salt]
< 100 nM
